- protocol text: qHTS for Inhibitors of human tyrosyl-DNA phosphodiesterase 1 (TDP1): qHTS in cells in presence of CPT; note: nearly all actives have a fitted effect of over 55% in size
- applied conditions: chicken DT40 Tdp1-/-;hTDP1 cells + 20 nM CPT, ATP luminescence, 48 h; series mostly up to 46.2 µM
The whole screen tested about 420,000 compounds, of which about 50,000 (12%) were called active. Inconclusive results (about 26%) are left out. Calls come from the whole dose curve; as a rule, active = well fitted inhibition curve with a large enough effect; inconclusive = small, poorly fitted or top-dose-only effect; inactive = flat fitted curve, though single readings scatter. The full list was thinned out, with actives kept by preference.
Tick one outcome: true (1) = active, false (0) = inactive

Inquiry: Dear all, I need the recorded test outcome for `CC(=O)c1c(C)[nH]c(C(=O)OCC(=O)Nc2c(C)n(C)n(-c3ccccc3)c2=O)c1C` , thank you.
Reply text: false (0)

Inquiry: Just curious, what result did `CC(=O)c1c(C)[nH]c(C(=O)OCC(=O)Nc2sc3c(c2C#N)CCCC3)c1C` get here?
Reply text: true (1)

Inquiry: Can you look up the reported call for `COc1ccc(-n2c(SCC(=O)Nc3sc4c(c3C#N)CCCC4)nnc2-c2ccc(O)cc2)cc1` for me?
Reply text: false (0)

Inquiry: Tell me the recorded outcome of this test for `COc1ccc2c(c1)CCC/C2=N\OC(=O)c1ccccc1F` .
Reply text: false (0)

Inquiry: Record lookup: outcome of this test for Cc1cccc(NC(=O)CCN2CC(C)CC(C)C2)c1 (stereo not given) ?
Reply text: false (0)

Inquiry: Assay result, entry `CC(=O)c1c(C)[nH]c(C(=O)OCC(=O)Nc2c(C)cccc2C)c1C` — outcome?
Reply text: true (1)

Inquiry: Kindly provide the recorded test outcome for the following compound: `Cc1ccc(C)c(NC(=O)Cn2ccn(-c3ccc(F)cc3)c(=O)c2=O)c1`
Reply text: false (0)

Inquiry: Which outcome was entered for the compound `CCN1CCN(CC(=O)Nc2sc3c(c2C#N)CCC3)CC1` in this test?
Reply text: false (0)

Inquiry: Any idea what this test logged for `O=C(NNS(=O)(=O)c1ccc(F)cc1)C1CCCCC1` ?
Reply text: false (0)

Inquiry: Fill in: this test's call for `COc1cc2c(cc1OC)CN(CC(=O)Nc1ccc(F)cc1)CC2` is ___
Reply text: false (0)

###

- protocol text: qHTS for Inhibitors of human tyrosyl-DNA phosphodiesterase 1 (TDP1): qHTS in cells in presence of CPT; note: nearly all actives have a fitted effect of over 55% in size
- applied conditions: chicken DT40 Tdp1-/-;hTDP1 cells + 20 nM CPT, ATP luminescence, 48 h; series mostly up to 46.2 µM
The whole screen tested about 420,000 compounds, of which about 50,000 (12%) were called active. Inconclusive results (about 26%) are left out. The call rests on the fitted dose curve; in most records, active means well fitted inhibition curve with a large enough effect; inconclusive means small, poorly fitted or top-dose-only effect; inactive means flat fitted curve, though single readings scatter. The full list was thinned out, with actives kept by preference.
Choose one outcome from this list and give only that: active, inactive

Inquiry: # fetch the recorded call for `Cc1ccc([C@@H]2CC(=O)[C@@H]3CN(S(=O)(=O)c4ccc(C)cc4)[C@H](c4ccccc4F)C[C@@H]3N2S(=O)(=O)c2ccc(Cl)cc2)cc1` here
Reply text: inactive

Inquiry: I'd appreciate the recorded outcome for CC12CCC(=O)N1C(C(=O)Nc1ccc(F)c(F)c1F)CS2 (stereo not given) from this test.
Reply text: inactive

Inquiry: Recorded call for `Cc1ccc(CNS(=O)(=O)c2ccc(-c3cc(C(F)(F)F)on3)s2)cc1` ?
Reply text: inactive

Inquiry: // param item: `CN[C@@H]1[C@H](O[C@H]2[C@H](O[C@H]3[C@H](O)[C@@H](O)[C@H](N=C(N)N)[C@@H](O)[C@@H]3N=C(N)N)O[C@@H](C)[C@]2(O)CO)O[C@@H](CO)[C@H](O)[C@H]1O` ; yields the recorded call
Reply text: inactive

Inquiry: // outcome(item) with item = `Nc1nc(CSc2nnnn2-c2ccccc2)nc(Nc2ccccc2)n1`
Reply text: inactive

Inquiry: Please share the test call associated with `Cc1ccc(C(=O)N(CC(=O)NC2CCCC2)c2ccc(F)cc2)s1` .
Reply text: inactive

Inquiry: How did this test come out for `O=C(c1cn(-c2ccccc2)nc1-c1cc2ccccc2oc1=O)N1CCOCC1` ?
Reply text: inactive

Inquiry: Check the results log: what was the call for `CCN(CCCNC(=O)c1c(C)oc2ncn(CC(C)C)c(=O)c12)Cc1ccccc1` ?
Reply text: inactive

Inquiry: Look up the recorded call for `O=c1oc2ccccc2cc1-c1cn(-c2ccccc2)c(=S)[nH]1` in this test.
Reply text: active

Inquiry: # lookup: test call for `C[C@H](CO)N1C[C@H](C)[C@@H](CN(C)S(=O)(=O)c2ccc(Oc3ccccc3)cc2)OCc2cn(nn2)CCCC1=O`
Reply text: inactive

Inquiry: Please share the test call associated with `CCCOC(=O)c1ccc(N2C(=O)c3ccccc3C2=O)cc1` .
Reply text: inactive

Inquiry: Outcome logged for `CC(C)c1c(C(=O)N/N=C/c2ccc(-c3ccccc3)cc2)nnn1-c1nonc1N` in this assay:
Reply text: inactive

Inquiry: What did this assay record as the result for `Cc1[nH]nc(SCC(=O)NCC(C)C)c1[N+](=O)[O-]` ?
Reply text: inactive

Inquiry: Field: outcome | Entry: `CCCc1cc(C(=O)Nc2ccc(C(=O)OC)cc2)cs1`
Reply text: inactive

Inquiry: Check the results log: what was the call for `S=c1[nH]c(-c2cccs2)cn1-c1ccccc1` ?
Reply text: inactive

Inquiry: Test call, this compound: `CCCN(CCC)c1c([N+](=O)[O-])c(=O)oc2ccccc12`
Reply text: inactive

Inquiry: Hi, sorry to bother you, what did the test record for `Cc1ccc(-c2noc(CSc3nnnn3-c3ccccc3)n2)cc1` ?
Reply text: inactive

Inquiry: Could you please tell me the result logged for `O=C(Cc1coc2ccc3ccccc3c12)NCc1cccs1` in this assay?
Reply text: inactive

Inquiry: Recorded test outcome, item `Oc1ccc(Cl)c2c1CCC2`
Reply text: inactive

Inquiry: Outcome logged for `O=C(COC(=O)/C=C/c1cccc(Cl)c1)NCCc1ccccc1` in this assay:
Reply text: inactive
